Target desc: T1, human interleukin 13 receptor alpha 2 (IL-13Rα2), biotinylated (human, UniProt Q14627 27-343, limits assumed, biotinylated (site not stated))
T1 construct: The methods give construct limits only for IL-13Rα1 and IL-4Rα1; For IL-13Rα2 they say only that the biotinylated receptor was captured on the SA chip; also called IL13RA2; CD213a2
T1 sequence (looked up): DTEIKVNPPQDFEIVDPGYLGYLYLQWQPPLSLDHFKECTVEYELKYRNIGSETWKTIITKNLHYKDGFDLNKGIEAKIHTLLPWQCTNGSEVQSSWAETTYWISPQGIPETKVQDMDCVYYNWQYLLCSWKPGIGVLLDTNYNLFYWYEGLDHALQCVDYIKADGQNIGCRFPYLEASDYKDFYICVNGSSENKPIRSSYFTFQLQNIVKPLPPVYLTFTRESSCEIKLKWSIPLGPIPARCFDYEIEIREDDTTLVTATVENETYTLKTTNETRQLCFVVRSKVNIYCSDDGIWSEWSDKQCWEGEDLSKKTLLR
Protocol text: SPR (Biacore T100), biotinylated receptor on SA chip, 1:1 kinetic fit
Measure name: koff (s⁻¹)
Kindly provide the numeric value in s⁻¹ only, without the unit symbol.

Binder	Value units	Val
C2 (ligand, also called IL-13 variant C2 (L10D, R11I, V18I, R86K, D87K, K89R, R108K)) cytokine: PGPVPPSTADIELIEELINITQNQKAPLCNGSMVWSINLTAGMYCAALESLINVSGCSAIEKTQRMLSGFCPHKVSAGQFSSLHVKKTRIEVAQFVKDLLLHLKKLFKEGQFN	s⁻¹	0.00015

Fill in: koff of A6 (ligand, also called IL-13 variant A6 (L10I, V18L, R86M, D87K, T88S, L101H, K104R, K105A)) cytokine: PGPVPPSTAIRELIEELLNITQNQKAPLCNGSMVWSINLTAGMYCAALESLINVSGCSAIEKTQRMLSGFCPHKVSAGQFSSLHVMKSKIEVAQFVKDLLHHLRALFREGQFN is ___
0.0028

Thanks! And A8 (ligand, also called IL-13 variant A8 (L10I, V18I, D87S, T88S, K89R, L101H, K104R, K105T)) cytokine: PGPVPPSTAIRELIEELINITQNQKAPLCNGSMVWSINLTAGMYCAALESLINVSGCSAIEKTQRMLSGFCPHKVSAGQFSSLHVRSSRIEVAQFVKDLLHHLRTLFREGQFN ?
0.0026

Thanks! And C9 (ligand, also called IL-13 variant C9 (L10H, R11L, V18I, R86K, D87E, K89R, L101N, K105T, R108K)) cytokine: PGPVPPSTAHLELIEELINITQNQKAPLCNGSMVWSINLTAGMYCAALESLINVSGCSAIEKTQRMLSGFCPHKVSAGQFSSLHVKETRIEVAQFVKDLLNHLKTLFKEGQFN ?
0.000529

Thanks! And C3 (ligand, also called IL-13 variant C3 (L10A, R86T, D87G, T88K, K89R, L101N, K104R, K105A, R108K)) cytokine: PGPVPPSTAARELIEELVNITQNQKAPLCNGSMVWSINLTAGMYCAALESLINVSGCSAIEKTQRMLSGFCPHKVSAGQFSSLHVTGKRIEVAQFVKDLLNHLRALFKEGQFN ?
0.002

Thanks! And IL-13 variant C11 (IL-13Rα2-selective IL-13 superkine; L10H, R86T, D87G, T88R, R108K) (ligand, the first is used here; Made in insect Hi5 cells; also called polypeptide C11) PGPVPPSTAHRELIEELVNITQNQKAPLCNGSMVWSINLTAGMYCAALESLINVSGCSAIEKTQRMLSGFCPHKVSAGQFSSLHVTGRKIEVAQFVKDLLLHLKKLFKEGQFNHHHHHH ?
9.18e-07

Thanks! And C12 (ligand, also called IL-13 variant C12 (L10H, R86M, T88S, K89R, L101N, K104R, K105A, R108K)) cytokine: PGPVPPSTAHRELIEELVNITQNQKAPLCNGSMVWSINLTAGMYCAALESLINVSGCSAIEKTQRMLSGFCPHKVSAGQFSSLHVMDSRIEVAQFVKDLLNHLRALFKEGQFN ?
0.000404

Thanks! And A11 (ligand, also called IL-13 variant A11 (L10V, V18I, D87S, T88S, L101F, K104R, K105T)) cytokine: PGPVPPSTAVRELIEELINITQNQKAPLCNGSMVWSINLTAGMYCAALESLINVSGCSAIEKTQRMLSGFCPHKVSAGQFSSLHVRSSKIEVAQFVKDLLFHLRTLFREGQFN ?
0.006

Thanks! And IL-13 variant C4 (L10V, K89R, L101N, K105E, R108T) (ligand, the first is used here; also called polypeptide C4) PGPVPPSTAVRELIEELVNITQNQKAPLCNGSMVWSINLTAGMYCAALESLINVSGCSAIEKTQRMLSGFCPHKVSAGQFSSLHVRDTRIEVAQFVKDLLNHLKELFTEGQFNHHHHHH ?
0.000764
